Sourced from paper PMC9916616

Tested on: Toxoplasma gondii RH-GFP tachyzoites
Experiment: In vitro anti-Tg assay (RH-GFP tachyzoite proliferation in Hs27 cells)
Assay type: cell-based
Conditions: CC30 in Hs27 / IC50Tg
PARAMETER: SI (selectivity index, CC30/IC50Tg)

COMPOUND	SUBJECT_OF_TEST	PARAMETER	READING_QUALIFIER	OBSERVED_MEASUREMENT
Nc1ccc(S(=O)(=O)Nc2ncccn2)cc1 [SDZ, sulfadiazine, reference compound]	Toxoplasma gondii RH-GFP tachyzoites	SI (selectivity index, CC30/IC50Tg)	=	1.78
COc1cc(/C=N/NC(N)=S)ccc1OC(=O)/C=C1\SC(=O)NC1=O [compound 11]	Toxoplasma gondii RH-GFP tachyzoites	SI (selectivity index, CC30/IC50Tg)	>	78.81
NC(=S)N/N=C/c1ccc(OC(=O)/C=C2\SC(=O)NC2=O)c(Cl)c1 [compound 12]	Toxoplasma gondii RH-GFP tachyzoites	SI (selectivity index, CC30/IC50Tg)	>	94.59
CCc1nc(N)nc(N)c1-c1ccc(Cl)cc1 [PYR, pyrimethamine, reference compound]	Toxoplasma gondii RH-GFP tachyzoites	SI (selectivity index, CC30/IC50Tg)	=	17.38
